src = paper PMC11425624

System: A549
protocol.summary: MTT cytotoxic activity assay, A549 cells, 72 h
Type: cell-based, human
setup.conditions: A549 human lung cancer cell line, 72 h, MTT
recorded.endpoint: IC50
Mention the unit after the number when you answer.

# returns recorded IC50 (system: A549) for `O=C(NN=Cc1ccccc1[O][Cu][O]c1ccccc1C=NNC(=O)c1ccc(F)cc1)c1ccc(F)cc1` 2.14 µM

Item: `O=C(NN=Cc1ccccc1[O][Fe][O]c1ccccc1C=NNC(=O)c1ccc(F)cc1)c1ccc(F)cc1` 78.8 µM

Moving on to the next compound: `O=C(NN=Cc1ccccc1O)c1ccc(F)cc1` 36.7 µM

Again, but for N.N.[Cl][Pt][Cl] [cisplatin, reference compound] 4.23 µM
